Cited source: patent US8377943B2

assaySystem: PTK2 (Homo sapiens, UniProt Q05397)
testDescription: PTK2 Enzyme Test (DELFIA assay, poly-Glu-Tyr substrate)
assayContext: active PTK2 enzyme, 50 μM ATP in ATP Mix, 1 h pre-incubation
propertyName: IC50 (nM)

Worked cases, IC50 given:
compound	assaySystem	readoutValue
COc1cc(CNC2CCCCC2)ccc1Nc1ncc(C(F)(F)F)c(NCc2ccc(C)cc2N(C)S(C)(=O)=O)n1	PTK2 (Homo sapiens, UniProt Q05397)	2
COc1cc(CN2CCCC2)ccc1Nc1ncc(C(F)(F)F)c(NCc2ccc(C)cc2N(C)S(C)(=O)=O)n1	PTK2 (Homo sapiens, UniProt Q05397)	2

a = COc1ccc(CNc2nc(Nc3ccc(C(=O)N[C@H]4CC[C@H](N5CCOCC5)CC4)cc3OC)ncc2C(F)(F)F)c(N(C)S(C)(=O)=O)c1
b = COc1cc(C(=O)NC2CCC(N(C)C)CC2)ccc1Nc1ncc(C(F)(F)F)c(NCc2ccc(C)cc2N(C)S(C)(=O)=O)n1 (stereo not shown)
Req: Quick check, higher IC50 between a and b ? Identify your selection by its label.
Resp: a

* * *

assaySystem: PTK2-phosphorylation at tyrosine 397 (pY397) (Homo sapiens)
Construct: endogenous in cells
Sequence (Q05397 whole entry): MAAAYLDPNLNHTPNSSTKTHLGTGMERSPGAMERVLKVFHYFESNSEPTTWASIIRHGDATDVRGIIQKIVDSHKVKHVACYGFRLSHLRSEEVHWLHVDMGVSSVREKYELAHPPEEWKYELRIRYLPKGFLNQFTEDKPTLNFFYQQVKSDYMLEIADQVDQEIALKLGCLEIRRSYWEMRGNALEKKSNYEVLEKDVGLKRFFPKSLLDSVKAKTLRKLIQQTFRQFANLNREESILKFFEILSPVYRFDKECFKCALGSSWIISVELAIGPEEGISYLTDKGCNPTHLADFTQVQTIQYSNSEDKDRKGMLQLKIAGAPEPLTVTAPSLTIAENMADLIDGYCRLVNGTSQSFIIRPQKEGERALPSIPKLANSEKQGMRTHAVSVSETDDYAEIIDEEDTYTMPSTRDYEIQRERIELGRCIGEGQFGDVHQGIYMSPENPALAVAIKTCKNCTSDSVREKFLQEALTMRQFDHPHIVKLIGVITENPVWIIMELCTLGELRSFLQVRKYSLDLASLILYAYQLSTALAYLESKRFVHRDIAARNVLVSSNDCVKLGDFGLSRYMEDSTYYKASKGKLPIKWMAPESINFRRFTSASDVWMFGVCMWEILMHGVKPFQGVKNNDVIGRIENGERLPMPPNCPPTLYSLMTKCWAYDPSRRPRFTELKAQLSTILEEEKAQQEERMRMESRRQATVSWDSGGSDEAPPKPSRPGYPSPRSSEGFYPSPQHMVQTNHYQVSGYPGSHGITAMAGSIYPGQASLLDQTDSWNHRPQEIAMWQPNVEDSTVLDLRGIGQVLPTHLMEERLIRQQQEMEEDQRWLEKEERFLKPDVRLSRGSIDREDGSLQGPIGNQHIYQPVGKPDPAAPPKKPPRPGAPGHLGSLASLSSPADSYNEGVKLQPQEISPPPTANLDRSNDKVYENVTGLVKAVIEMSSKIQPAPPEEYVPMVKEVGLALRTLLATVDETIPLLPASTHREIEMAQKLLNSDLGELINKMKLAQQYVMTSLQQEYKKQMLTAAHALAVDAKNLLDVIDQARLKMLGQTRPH
testDescription: Phospho-PTK2 (pY397) Assay in PC-3 cells
assayContext: PC-3 prostate carcinoma cells, 2 h incubation; read-out: PC3pPTK2 Y397 EC50
propertyName: EC50 (nM)

compound	EC50 / nM
COc1ccc(CNc2nc(Nc3ccc(NC(C)=O)c(C)c3)ncc2C(F)(F)F)c(N(C)S(C)(=O)=O)c1	3
COc1cc(C(=O)NC2CCC(N(C)C)CC2)ccc1Nc1ncc(C(F)(F)F)c(NCc2ccc(C)cc2N(C)S(C)(=O)=O)n1 (stereo not drawn)	0.53
CCc1cc(C(=O)NC2CCN(CC)CC2)ccc1Nc1ncc(C(F)(F)F)c(NCc2ccc(C)cc2N(C)S(C)(=O)=O)n1	2
COc1cc(CNCCN(C)C)ccc1Nc1ncc(C(F)(F)F)c(NCc2ccc(C)cc2N(C)S(C)(=O)=O)n1	1

A = COc1cc(CNC2CC2)ccc1Nc1ncc(C(F)(F)F)c(NCc2ccc(C)cc2N(C)S(C)(=O)=O)n1
B = COc1ccc(CNc2nc(Nc3cc(F)c(C(=O)N[C@H]4CCN(C)C4)cc3OC)ncc2C(F)(F)F)c(N(C)S(C)(=O)=O)c1
Req: Compare A and B and name the one whose reported EC50 is smaller. Mark your answer with the label of the selected entry.
Resp: B
(B: 0.29 nM, A: 0.75 nM)

A = COc1cc(C(=O)NC2CCOC2)ccc1Nc1ncc(C(F)(F)F)c(NCc2ccc(C)cc2N(C)S(C)(=O)=O)n1 (stereo not drawn)
B = COc1cc(C(=O)N[C@@H]2CCCN(C(C)C)C2)ccc1Nc1ncc(C(F)(F)F)c(NCc2ccc(C)cc2N(C)S(C)(=O)=O)n1
Req: Could you kindly indicate whether A or B has the higher EC50 value? Write the label of whichever entry you select.
Resp: A
(A: 0.67 nM, B: 0.14 nM)

P = COc1cc(C(=O)NC2CCC(NC(C)=O)CC2)ccc1Nc1ncc(C(F)(F)F)c(NCc2ccc(C)cc2N(C)S(C)(=O)=O)n1 (stereo not drawn)
Q = CCOCCNC(=O)c1ccc(Nc2ncc(C(F)(F)F)c(NCc3ccc(C)cc3N(C)S(C)(=O)=O)n2)c(OC)c1
Req: Hi there, can you help? I need to know whether P or Q has lower measured EC50. Provide the label of your selected option as the answer.
Resp: Q
(Q: 0.22 nM, P: 0.51 nM)

1 = COc1cc(C(=O)NC2CCN(C3CCCCC3)CC2)ccc1Nc1ncc(C(F)(F)F)c(NCc2ccc(C)cc2N(C)S(C)(=O)=O)n1
2 = COc1cc(CNC2CCN(C)CC2)ccc1Nc1ncc(C(F)(F)F)c(NCc2ccc(C)cc2N(C)S(C)(=O)=O)n1
Req: Which has the smaller recorded EC50, 1 or 2 ? Mark your answer with the label of the selected entry.
Resp: 1

* * *

assaySystem: PTK2 (Homo sapiens, UniProt Q05397)
testDescription: PTK2 Enzyme Test (DELFIA assay, poly-Glu-Tyr substrate)
assayContext: active PTK2 enzyme, 50 μM ATP in ATP Mix, 1 h pre-incubation
pIC50: −log10 of the molar value.
propertyName: pIC50

Recorded pIC50, per entry:
compound	pIC50
COc1cc(C(=O)N[C@@H]2CCN(C)C[C@H]2F)ccc1Nc1ncc(C(F)(F)F)c(NCc2ccc(C)cc2N(C)S(C)(=O)=O)n1	8.40
COC(=O)Nc1cc(OC)c(Nc2ncc(C(F)(F)F)c(NCc3ccc(F)cc3N(C)S(C)(=O)=O)n2)cc1C	8.22
COc1cc(C(=O)NC2CCN(C)CC2)ccc1Nc1ncc(C(F)(F)F)c(NCc2ccc(Cl)cc2N(C)S(C)(=O)=O)n1	9.00

A = CCc1cc(C(=O)NC2CCOCC2)ccc1Nc1ncc(C(F)(F)F)c(NCc2ccc(C)cc2N(C)S(C)(=O)=O)n1
B = COc1cc(C(=O)NC2CCN(C)CC2)c(C)cc1Nc1ncc(C(F)(F)F)c(NCc2ccc(C)cc2N(C)S(C)(=O)=O)n1
C = COc1cc(C(=O)N[C@@H]2CCCN(C)C2)ccc1Nc1ncc(C(F)(F)F)c(NCc2ccc(C)cc2N(C)S(C)(=O)=O)n1
Req: // ascending sort on recorded pIC50 Your answer should be the labels, listed in the requested order.
Resp: A, C, B
(A: 8.40, C: 8.70, B: 9.00)

1 = COc1cc(C(=O)NC2CCC(N3CCOCC3)CC2)c(C)cc1Nc1ncc(C(F)(F)F)c(NCc2ccc(C)cc2N(C)S(C)(=O)=O)n1 (centres unmarked)
2 = COc1cc(C(=O)NC(C)(C)C)c(F)cc1Nc1ncc(C(F)(F)F)c(NCc2ccc(C)cc2N(C)S(C)(=O)=O)n1
3 = COc1cc(C(=O)NC2CCN(C)CC2)ccc1Nc1ncc(C(F)(F)F)c(NCc2ccc(F)cc2N(C)S(C)(=O)=O)n1
Req: Returns the items ordered by pIC50, from maximum to minimum. State the ranking by listing the labels in the requested order.
Resp: 3, 1, 2

* * *

assaySystem: PTK2 (Homo sapiens, UniProt Q05397)
testDescription: PTK2 Enzyme Test (DELFIA assay, poly-Glu-Tyr substrate)
assayContext: active PTK2 enzyme, 50 μM ATP in ATP Mix, 1 h pre-incubation
Experimental: This test uses active PTK2 enzyme (Invitrogen Code PV3832) and poly-Glu-Tyr (4:1, Sigma P-0275) as the kinase substrate. The kinase activity is detected by means of the phosphorylation of the substrate in a DELFIA™ assay. The phosphorylated substrate is detected with the Europium-labelled phosphotyrosine antibody PY20 (Perkin Elmer, No.: AD0038). […] The time-delayed europium fluorescence is then measured in a microtitre plate reader (Victor, Perkin Elmer). […]
propertyName: IC50 (nM)

Example entries and their recorded answers appear below.
molecule	IC50 (nM)
COc1cc(C(=O)N[C@H]2CN3CCC2CC3)ccc1Nc1ncc(C(F)(F)F)c(NCc2ccc(C)cc2N(C)S(C)(=O)=O)n1 [Example 28]	4
CC(=O)Nc1ccc(Nc2ncc(C(F)(F)F)c(NCc3ccc(C)cc3N(C)S(C)(=O)=O)n2)cc1C [Example 117]	0.85

A = COc1cc(C(=O)N(C)C2CCN(C)CC2)ccc1Nc1ncc(C(F)(F)F)c(NCc2ccc(C)cc2N(C)S(C)(=O)=O)n1 [Example 108]
B = CNC(=O)c1ccc(Nc2ncc(C(F)(F)F)c(NCc3ccc(C)cc3N(C)S(C)(=O)=O)n2)c(C)c1 [Example 130]
Req: Field: lower IC50 | Options: A / B # answer = label of selected item
Resp: B

* * *

assaySystem: PTK2 (Homo sapiens, UniProt Q05397)
Construct: purchased Invitrogen PV3832
testDescription: PTK2 Enzyme Test (DELFIA assay, poly-Glu-Tyr substrate)
Assay type: biochemical
assayContext: active PTK2 enzyme, 50 μM ATP in ATP Mix, 1 h pre-incubation
pIC50: −log10 of the molar value.
propertyName: pIC50

molecule	pIC50
COc1cc(C(=O)N[C@@H]2CCN(C)C2)c(Cl)cc1Nc1ncc(C(F)(F)F)c(NCc2ccc(C)cc2N(C)S(C)(=O)=O)n1	8.52

A = COc1cc(C(=O)N[C@H]2CCCN(C3CCCC3)C2)ccc1Nc1ncc(C(F)(F)F)c(NCc2ccc(C)cc2N(C)S(C)(=O)=O)n1
B = COc1ccc(CNc2nc(Nc3cc(F)c(C(=O)N[C@@H]4CCN(C)C4)cc3OC)ncc2C(F)(F)F)c(N(C)S(C)(=O)=O)c1
Req: Lower value for measured pIC50? Options: A , B # respond with the chosen item's label
Resp: A

P = COc1cc(N2CCN(C3COC3)CC2)ccc1Nc1ncc(C(F)(F)F)c(NCc2ccc(C)cc2N(C)S(C)(=O)=O)n1
Q = CCN1CCC[C@@H](NC(=O)c2ccc(Nc3ncc(C(F)(F)F)c(NCc4ccc(C)cc4N(C)S(C)(=O)=O)n3)c(OC)c2)C1
R = COc1cc(C(=O)NC2CCN(C)CC2)ccc1Nc1ncc(C(F)(F)F)c(NCc2ccc(C)cc2N(C)S(C)(=O)=O)n1
S = COc1cc(CNCc2ccccc2)ccc1Nc1ncc(C(F)(F)F)c(NCc2ccc(C)cc2N(C)S(C)(=O)=O)n1
Req: Sort ascending by pIC50. Answer by naming the labels in the order asked.
Resp: S, P, Q, R

A = COc1cc(C(=O)N[C@H]2CCN(C)C[C@H]2F)c(F)cc1Nc1ncc(C(F)(F)F)c(NCc2ccc(C)cc2N(C)S(C)(=O)=O)n1
B = CNC(=O)c1ccc(Nc2ncc(C(F)(F)F)c(NCc3ccc(OC)cc3N(C)S(C)(=O)=O)n2)c(OC)c1
C = CCCNC(=O)c1ccc(Nc2ncc(C(F)(F)F)c(NCc3ccc(F)cc3N(C)S(C)(=O)=O)n2)c(OC)c1
D = COc1cc(C(=O)N(C)C)c(C)cc1Nc1ncc(C(F)(F)F)c(NCc2ccc(C)cc2N(C)S(C)(=O)=O)n1
Req: Kindly order the items shown according to pIC50, from the highest value down. Dear reader, please state the labels in the requested order.
Resp: B, A, C, D
(B: 9.00, A: 8.52, C: 8.30, D: 8.05)

P = COc1cc(CNCCN(C)C)ccc1Nc1ncc(C(F)(F)F)c(NCc2ccc(C)cc2N(C)S(C)(=O)=O)n1
Q = COc1cc(C(=O)NC2CCN(C3CCOCC3)CC2)ccc1Nc1ncc(C(F)(F)F)c(NCc2ccc(C)cc2N(C)S(C)(=O)=O)n1
R = COc1cc(N2CCN(C)CC2)ccc1Nc1ncc(C(F)(F)F)c(NCc2ccc(F)cc2N(C)S(C)(=O)=O)n1
Req: Reorder the items by pIC50, least to greatest. Field: ranking. Enter the labels in the order requested.
Resp: P, Q, R
(P: 8.40, Q: 8.70, R: 9.00)

a = COc1cc(C(=O)N[C@@H]2CCN(C)C[C@@H]2F)c(F)cc1Nc1ncc(C(F)(F)F)c(NCc2ccc(C)cc2N(C)S(C)(=O)=O)n1
b = COC(=O)Nc1cc(OC)c(Nc2ncc(C(F)(F)F)c(NCc3ccc(OC)cc3N(C)S(C)(=O)=O)n2)cc1C
c = COc1cc(C(=O)NC2CCC(N(C)C(C)C)CC2)ccc1Nc1ncc(C(F)(F)F)c(NCc2ccc(C)cc2N(C)S(C)(=O)=O)n1 (centres unmarked)
Req: Let's sort these by pIC50, smallest first. Go ahead? Please write the labels in the order that was asked for.
Resp: b, a, c
(b: 8.30, a: 8.52, c: 9.00)

1 = COc1cc(C(=O)N[C@@H]2CCN(C)C2)c(F)cc1Nc1ncc(C(F)(F)F)c(NCc2ccc(C)cc2N(C)S(C)(=O)=O)n1
2 = COc1cc(C(=O)NC2CCC(N3CCN(CC4CC4)CC3)CC2)c(C)cc1Nc1ncc(C(F)(F)F)c(NCc2ccc(C)cc2N(C)S(C)(=O)=O)n1 (centres unmarked)
3 = Cc1ccc(CNc2nc(Nc3cc(F)c(N4CCNCC4)cc3F)ncc2C(F)(F)F)c(N(C)S(C)(=O)=O)c1
Req: List from greatest to least pIC50. Dear reader, please state the labels in the requested order.
Resp: 3, 1, 2
